meta.source: ChEMBL document CHEMBL1201862

- Test system: SF-539
- protocol.text: NCI tumour cell line growth inhibition, 48 h
Activity calls are given as the source filed them. Cut-off read from the data, not from the text of the source: active = GI50 up to about 1.1 µM and inactive = higher.
endpoint.label: GI50

The reported value for "c1ccc2c(c1)C1=NCCN1c1ccccc1-2" in terms of GI50 is 2.78 µM (inactive)

The reported value for CC(=O)OCC(C)(COC(C)=O)N1C(=O)C2C3c4ccccc4C(c4ccccc43)C2C1=O (stereo unspecified) in terms of GI50 is > 100 µM (inactive)

The reported value for O=C(O)C1C2OC(C(Br)C2Br)C1C(=O)O (stereo unspecified) in terms of GI50 is > 100 µM (inactive)

The reported value for "Cn1c2ccccc2c(=O)c2ccc(Cl)cc21" in terms of GI50 is 2.51 µM (inactive)

The reported value for "COc1cccc(CCn2c(N)c(-c3ccccc3)c3ccc([N+](=O)[O-])cc3c2=O)c1" in terms of GI50 is 2.51 µM (inactive)

The reported value for COc1ccccc1C1c2cc3c(cc2OC2(OC)COC(=O)C12)OCO3 (stereo unspecified) in terms of GI50 is 12.3 µM (inactive)

The reported value for "CC(C)(C)c1ccc2c(c1)S(=O)(=O)Nc1cccc(c1)NS(=O)(=O)c1cc(C(C)(C)C)ccc1OCCOCCO2" in terms of GI50 is > 100 µM (inactive)

The reported value for "CN(C1=NS(=O)(=O)N=C(N(C)c2ccccc2)O1)c1ccccc1" in terms of GI50 is 21.6 µM (inactive)

The reported value for "CCCCCCCCCCCC(=O)OC[C@H](C[As](=O)(O)O)OC(=O)CCCCCCCCCCC" in terms of GI50 is 14.2 µM (inactive)

The reported value for "COc1ccc(S(=O)(=O)N/N=C/C(=O)O)cc1" in terms of GI50 is 519 µM (inactive)

The reported value for COC1=CC2(C=CC1=O)CCNC1=C2C(=O)c2nc[nH]c2C1=O (stereo unspecified) in terms of GI50 is > 100 µM (inactive)

====

- Tested on: K562
- protocol.text: NCI tumour cell line growth inhibition, 48 h
Active and inactive are the calls of the source. Rule as the data show it: active = GI50 up to about 1.1 µM and inactive = higher.
Please reply with one of these outcomes: active, inactive

Q: Which outcome did this test record for the compound "CC(C)S(=O)(=O)ON1C(=O)c2ccc(N(C)C)cc2C1=O" ?
A: inactive

Q: Which outcome did this test record for the compound "CCOC(=O)c1ccc(C(=O)/C(C#N)=C2\CCCN2)[nH]1" ?
A: inactive

Q: Which outcome did this test record for the compound "Cn1c(=O)sc2cc(C(=S)N3CCOCC3)ccc21" ?
A: inactive

Q: Which outcome did this test record for the compound "O=C1CC(/C=C/c2ccco2)=C(O)C1=O" ?
A: inactive

Q: Which outcome did this test record for the compound "[N-]=[N+]=C(C(=O)N1CCCC1=O)S(=O)(=O)c1ccccc1" ?
A: inactive

Q: Which outcome did this test record for the compound C[C@@H]1OC(=O)C[C@H]2CC(=O)N(CCC3CN(C(=O)c4ccccc4)c4ccccc43)C[C@@H]21 (stereo not given in full) ?
A: inactive

Q: Which outcome did this test record for the compound "CSc1cc(N)ccc1/N=N/c1ccc(S(N)(=O)=O)cc1" ?
A: inactive

Q: Which outcome did this test record for the compound "O=c1[nH]n(Cc2ccccn2)c2ccc([N+](=O)[O-])cc12" ?
A: inactive

Q: Which outcome did this test record for the compound O=C(O)C(CS)Nc1c2ccccc2nc2ccccc12 (stereo not given) ?
A: inactive

Q: Which outcome did this test record for the compound O=P(Nc1cccc(Cl)c1)(Oc1ccccc1)N(CCCl)CCCl (stereo not given) ?
A: inactive

Q: Which outcome did this test record for the compound "O=Cc1cn(C(=O)c2ccccc2)c2ccccc12" ?
A: inactive

Q: Which outcome did this test record for the compound "C=CCSc1nn(CC=C)cc2ncnc1-2" ?
A: inactive

Q: Which outcome did this test record for the compound "Cc1cccc(NC(=O)/C=C/c2ccccc2)c1C" ?
A: inactive

Q: Which outcome did this test record for the compound CCCCNC(=S)OCCC(C)CCCC(C)C (stereo not given) ?
A: inactive

Q: Which outcome did this test record for the compound C=C(NC(=O)C(=C)NC(=O)c1csc(C2=NC3c4csc(n4)C4NC(=O)c5csc(n5)C(C(C)(O)C(C)O)NC(=O)C5CSC(=N5)/C(=C/C)NC(=O)C(C(C)O)NC(=O)c5csc(n5)C3(CC2)NC(=O)C(C)NC(=O)C(=C)NC(=O)C(=C)NC(=O)C(C(C)C)NC2C=Cc3c(C(C)O)cc(nc3C2O)C(=O)OC4C)n1)C(N)=O (stereo not given) ?
A: active

Q: Which outcome did this test record for the compound CCOC(OC1=C(C#N)CCCC1)C(CC)[Se]c1ccccc1[N+](=O)[O-] (stereo not given) ?
A: inactive

Q: Which outcome did this test record for the compound "COc1cc(OC)c(C#N)c(OC)c1C" ?
A: inactive

Q: Which outcome did this test record for the compound C/C=C/CC(C(=O)OCC)(N(C)C(=O)OC(C)(C)C)S(=O)(=O)c1ccc(C)cc1 (stereo not given) ?
A: inactive

Q: Which outcome did this test record for the compound COc1cc(C2SCC(=O)N2c2ccc(NC(=O)c3ccc(N4C(=O)CSC4c4cc(OC)c(OC)c(OC)c4)cc3)cc2)cc(OC)c1OC (stereo not given) ?
A: inactive

Q: Which outcome did this test record for the compound "Nc1cc(Cl)cc2cc(Cl)cnc12" ?
A: inactive

Q: Which outcome did this test record for the compound "COc1ccc(-c2cc(-c3cc(F)c(Cl)cc3Cl)on2)cc1OC" ?
A: inactive

Q: Which outcome did this test record for the compound "COC(=O)c1csc([C@@H](OC(=O)[C@H](C)[C@H](CCCC(C)(Cl)Cl)OC(=O)c2csc([C@H](O)CO)n2)C(C)C)n1" ?
A: inactive

Q: Which outcome did this test record for the compound "CC(C)(C)C(=O)/C=C/c1ccc(Oc2ccccc2)cc1" ?
A: inactive

Q: Which outcome did this test record for the compound CC(=O)n1cc(CC(C)O)c(=O)[nH]c1=O (stereo not given) ?
A: inactive

Q: Which outcome did this test record for the compound "C=CCCC(=O)CC(O)(C(F)(F)F)C(F)(F)F" ?
A: inactive

====

- Test system: SR
- protocol.text: NCI tumour cell line growth inhibition, 48 h
Active and inactive are the calls of the source. Cut-off read from the data, not from the text of the source: active = GI50 up to about 1.1 µM and inactive = higher.
endpoint.label: GI50

The reported value for "COc1ccc(OC)c2sc(N3C(=O)/C(=C/c4ccc(Cl)cc4)N=C3c3ccccc3)nc12" in terms of GI50 is 43.4 µM (inactive)

The reported value for O=P(Nc1cccc(Cl)c1)(Oc1ccccc1)N(CCCl)CCCl (stereo unspecified) in terms of GI50 is 31.6 µM (inactive)

The reported value for Cn1c(=O)n(CC2CS2)c2ccccc21 (stereo unspecified) in terms of GI50 is 99.3 µM (inactive)

The reported value for "COc1ccc(C2=Nn3c(nc4sc(C)c(C)c4c3=O)SC2)cc1" in terms of GI50 is > 100 µM (inactive)

The reported value for "CC(C)OC(=O)c1cc(NC(=S)OC(C)C)ccc1Cl" in terms of GI50 is 28.6 µM (inactive)

The reported value for CN1CCCC(OC(=O)c2cc3cc(CCl)ccc3oc2=O)C1 (stereo unspecified) in terms of GI50 is 21.9 µM (inactive)

The reported value for CC(C)=CCCC1(C)C=Cc2c(c(C)cc3c2[nH]c2cc(O)ccc23)O1 (stereo unspecified) in terms of GI50 is 24 µM (inactive)

The reported value for Cc1cc(O)nc(NNC(C#N)c2cccc(O)c2)n1 (stereo unspecified) in terms of GI50 is > 100 µM (inactive)

The reported value for "O=C1c2ccccc2-c2c1c1ccccc1c(=O)n2-c1ccccc1" in terms of GI50 is > 100 µM (inactive)

The reported value for "Clc1cc(Br)c2c3c(c(Br)cc(Cl)c13)C(Br)=C2Br" in terms of GI50 is 27.9 µM (inactive)

The reported value for N#CC1(C#N)C2=C(CCCC2)NC(c2ccc(Br)cc2)C1(C#N)C#N (stereo unspecified) in terms of GI50 is 0.782 µM (active)

====

Could you please report measured GI50 for the items listed next?
- System: EKVX
- protocol.text: NCI tumour cell line growth inhibition, 48 h
Active and inactive are the calls of the source. Rule as the data show it: active = GI50 up to about 1.1 µM and inactive = higher.

The reported value for "Cc1cc(Cl)ccc1NC(=O)C(=O)Cc1nc2ccc(C(=O)c3ccccc3)cc2nc1O" in terms of GI50 is > 100 µM (inactive)

The reported value for "CC(=O)OC(OC(C)=O)c1ncccc1C(=O)OC(C)C" in terms of GI50 is > 100 µM (inactive)

The reported value for "Nc1nc(Cl)c2ncn(Cc3ccc(CCl)cc3)c2n1" in terms of GI50 is 2.58 µM (inactive)

The reported value for "CC1(n2nc(-c3ccccc3)n(-c3ccccc3)c2=O)CSC1" in terms of GI50 is > 100 µM (inactive)

The reported value for O=C(O)C1C2OC(C(Br)C2Br)C1C(=O)O (stereo unspecified) in terms of GI50 is > 100 µM (inactive)

The reported value for COC(=O)C1Cc2ccc(C)cc2C1=O (stereo unspecified) in terms of GI50 is > 100 µM (inactive)
